Task for the reader: assign each of the following compounds its reported Postemergence herbicidal rating TRZAWR.
# Tested on: TRZAWR Wheat, Winter, cv Riband
# Assay details: Postemergence herbicidal evaluation, TRZAWR
# Assay type: in vivo, Triticum aestivum
# Design: scale not given here
# Setup conditions: 0.016 kg/ha, postemergence spray, rated about two-three weeks after treatment
# Procedure: In this evaluation, seedling plants are grown in jiffy flats for about two weeks. The test compounds are dispersed in 80/20 acetone/water mixtures containing 1.0% SUN-IT® II, a methylated seed oil, in sufficient quantities to provide the equivalent of about 0.006 kg to 0.400 kg per hectare of active compound when applied to the plants through a spray nozzle operating at 40 psi for a predetermined time. […]
Give bare numbers.

Solved entries:
COc1ccc(C)c(-n2nnc3cc(F)c(-n4c(=O)cc(C(F)(F)F)n(C)c4=O)cc32)c1
3.5
C=CCOc1ccc(C)cc1-n1nnc2cc(F)c(-n3c(=O)cc(C(F)(F)F)n(C)c3=O)cc21
2.5
Cc1ccc(OCC(=O)O)cc1-n1nnc2cc(F)c(-n3c(=O)cc(C(F)(F)F)n(C)c3=O)cc21
5.5
COC(=O)COc1ccc(C)c(-n2nnc3cc(F)c(-n4c(=O)cc(C(F)(F)F)n(C)c4=O)cc32)c1
4.5
CCc1cccc(-n2nnc3cc(F)c(-n4c(=O)cc(C(F)(F)F)n(C)c4=O)cc32)c1
2.0
C=CCOc1ccc(-n2nnc3cc(F)c(-n4c(=O)cc(C(F)(F)F)n(C)c4=O)cc32)c(C)c1
3.0
CCc1ccc(-n2nnc3cc(F)c(-n4c(=O)cc(C(F)(F)F)n(C)c4=O)cc32)cc1COC
4.5
Cc1ccccc1-n1nnc2cc(F)c(-n3c(=O)cc(C(F)(F)F)n(C)c3=O)cc21
1.5

query: Find the measured Postemergence herbicidal rating TRZAWR of "COC(=O)COc1ccc(-n2nnc3cc(F)c(-n4c(=O)cc(C(F)(F)F)n(C)c4=O)cc32)c(C)c1" and report it.
result: 3.0
